Biological target: UniProt P08659
Sequence (P08659 whole entry): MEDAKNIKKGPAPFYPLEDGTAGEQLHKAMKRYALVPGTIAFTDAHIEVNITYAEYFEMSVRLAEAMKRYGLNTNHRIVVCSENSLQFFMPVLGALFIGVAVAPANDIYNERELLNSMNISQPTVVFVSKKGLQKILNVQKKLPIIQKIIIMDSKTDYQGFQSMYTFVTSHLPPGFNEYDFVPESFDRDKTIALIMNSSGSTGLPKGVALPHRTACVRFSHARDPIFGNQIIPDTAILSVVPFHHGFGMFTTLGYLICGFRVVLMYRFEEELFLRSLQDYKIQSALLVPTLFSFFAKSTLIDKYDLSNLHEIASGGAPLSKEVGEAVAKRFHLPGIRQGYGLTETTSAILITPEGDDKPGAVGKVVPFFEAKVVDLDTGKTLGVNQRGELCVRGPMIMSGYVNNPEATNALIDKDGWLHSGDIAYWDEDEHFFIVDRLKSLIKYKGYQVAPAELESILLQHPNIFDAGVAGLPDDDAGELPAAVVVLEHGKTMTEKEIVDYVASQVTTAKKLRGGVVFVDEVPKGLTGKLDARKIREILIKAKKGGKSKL
Assay: Counter Screen for Luciferase-based Assay Positives. [Related pubchem assays: 620, 618, 411 ]
Activity calls are given as the source filed them. Cut-off read from the data, not from the text of the source: actives have a measured EC50 and inactives only a lower limit.
Attribute Measured: EC50

Compound: CCCCC/N=C\c1c(C)nn(-c2nc3ccccc3s2)c1O
System Tested: UniProt P08659
Result: 1930 nM (active)

Compound: Cc1ccc(-c2nc(-c3ccccn3)no2)cc1
System Tested: UniProt P08659
Result: 810 nM (active)

Compound: Cc1nc2cc(-c3cccc(F)c3)nn2c(C)c1CCC(=O)NC(C)CCc1ccco1 (centres undefined)
System Tested: UniProt P08659
Result: 270 nM (active)

Exercise: Endpoint output: EC50 of COc1cccc(C(=O)/C=C/Nc2cccc(O)c2)c1 . Value?
Solution: 560 nM (active)
